Where do the numbers come from? From the supplement of paper PMC12667976.

AIRE transcriptional activation functional score: recorded values
B1: library; numbered along this chain (parent)
chain: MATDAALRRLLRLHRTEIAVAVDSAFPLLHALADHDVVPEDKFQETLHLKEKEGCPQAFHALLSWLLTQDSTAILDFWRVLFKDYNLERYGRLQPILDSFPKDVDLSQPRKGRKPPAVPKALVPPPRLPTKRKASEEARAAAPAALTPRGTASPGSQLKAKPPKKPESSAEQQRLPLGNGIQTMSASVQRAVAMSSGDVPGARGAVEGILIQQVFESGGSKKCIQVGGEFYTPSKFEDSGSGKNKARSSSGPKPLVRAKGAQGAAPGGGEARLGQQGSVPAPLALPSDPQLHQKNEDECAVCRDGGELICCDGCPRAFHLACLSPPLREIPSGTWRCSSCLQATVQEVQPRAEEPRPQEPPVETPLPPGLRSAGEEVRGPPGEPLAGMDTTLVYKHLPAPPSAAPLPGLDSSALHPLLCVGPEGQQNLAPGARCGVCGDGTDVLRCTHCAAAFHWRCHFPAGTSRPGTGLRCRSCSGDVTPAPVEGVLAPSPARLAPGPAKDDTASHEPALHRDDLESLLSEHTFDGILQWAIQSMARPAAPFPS

Variants of: B1
Assay: AIRE transcriptional activation functional score (insulin promoter-GFP; nonsense median 0, synonymous median 1) (normalised score); higher = higher AIRE activity (more reporter activation)
Conditions: with insulin promoter-GFP reporter in HEK293
Reported Property: AIRE transcriptional activation functional score

1. H458C 1.02
2. H512V 1.35
3. V420L 0.722
4. Q225W 0.582
5. P360E 1.22
6. D502Y 1.33
7. G269C 0.879
8. C437W 0.0698
9. S339G 0.951
